- SYSTEM: human muscarinic receptor subtype M5 (Homo sapiens)
- Sequence (P08912 whole entry): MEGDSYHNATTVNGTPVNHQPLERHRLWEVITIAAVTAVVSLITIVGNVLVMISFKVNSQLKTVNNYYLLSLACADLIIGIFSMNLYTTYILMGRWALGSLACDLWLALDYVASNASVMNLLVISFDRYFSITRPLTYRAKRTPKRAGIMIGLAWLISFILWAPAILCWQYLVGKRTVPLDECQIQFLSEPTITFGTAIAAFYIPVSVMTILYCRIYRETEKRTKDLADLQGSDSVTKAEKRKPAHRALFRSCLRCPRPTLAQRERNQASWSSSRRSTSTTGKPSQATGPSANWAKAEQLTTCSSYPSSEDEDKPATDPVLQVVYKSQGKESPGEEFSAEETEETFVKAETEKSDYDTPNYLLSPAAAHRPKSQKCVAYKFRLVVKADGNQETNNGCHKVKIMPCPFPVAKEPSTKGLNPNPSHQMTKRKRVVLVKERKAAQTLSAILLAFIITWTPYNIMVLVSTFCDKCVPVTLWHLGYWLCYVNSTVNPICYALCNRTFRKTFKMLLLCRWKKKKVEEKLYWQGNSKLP
- ASSAY: Muscarinic receptor binding, displacement of [3H]-NMS, membranes from transfected CHO cells
- EXPERIMENTAL_CONDITIONS: [3H]-NMS displacement, CHO cell membranes; tested two to four times, SEM <=10%; read-out: Muscarinic Binding Activity M5 (IC50)
Rule for this label: satisfied means IC50 is less than 4 µM; not satisfied means IC50 is at least 4 µM.

- COMPOUND: "CCCc1[nH]c2ccc3c(c2c1C(=O)OCC)CN1CCc2cc(OC)ccc2C1O3 (stereo not shown) [Example 1]"
  CLASS_ASSIGNMENT: "satisfied"
- COMPOUND: "CCOC(=O)c1c(C)n(C)c2ccc3c(c12)CN1CCc2cc(OC)ccc2C1O3 (stereo not shown) [Prior Art Compound Et/Me/9-OMe/Me, reference compound]"
  CLASS_ASSIGNMENT: "satisfied"
- COMPOUND: "CCCCCc1[nH]c2ccc3c(c2c1C(=O)OCC)CN1CCc2cc(OC)ccc2C1O3 (stereo not shown) [Example 7]"
  CLASS_ASSIGNMENT: "not satisfied"
- COMPOUND: "CCCc1[nH]c2ccc3c(c2c1C(=O)OCC)CN1CCc2cc(SC)ccc2C1O3 (stereo not shown) [Example 4]"
  CLASS_ASSIGNMENT: "satisfied"
- COMPOUND: "CCCc1c(C(=O)OCC)c2c3c(ccc2n1C)OC1c2ccc(OC)cc2CCN1C3 (stereo not shown) [Example 3]"
  CLASS_ASSIGNMENT: "not satisfied"
- COMPOUND: "CCCc1c(C(=O)OCC)c2c3c(ccc2n1C)OC1c2ccc(SC)cc2CCN1C3 (stereo not shown) [Example 2]"
  CLASS_ASSIGNMENT: "satisfied"
- COMPOUND: "CCCCc1[nH]c2ccc3c(c2c1C(=O)OCC)CN1CCc2cc(SC)ccc2C1O3 (stereo not shown) [Example 6]"
  CLASS_ASSIGNMENT: "satisfied"

###

- SYSTEM: human muscarinic receptor subtype M5 (Homo sapiens)
- ASSAY: Muscarinic receptor binding, displacement of [3H]-NMS, membranes from transfected CHO cells
- EXPERIMENTAL_CONDITIONS: [3H]-NMS displacement, CHO cell membranes; tested two to four times, SEM <=10%; read-out: Muscarinic Binding Activity M5 (IC50)
pIC50: −log10 of the molar value.
Measured pIC50 by item

- COMPOUND: "CCOC(=O)c1c(CC)[nH]c2ccc3c(c12)CN1CCc2cc(OC)ccc2C1O3 (stereo not shown) [Prior Art Compound Et/Et/9-OMe/H, reference compound]"
  pIC50: 5.22
- COMPOUND: "CCCCc1[nH]c2ccc3c(c2c1C(=O)OCC)CN1CCc2cc(OC)ccc2C1O3 (stereo not shown)"
  pIC50: 4.89
- COMPOUND: "CCCCCCc1[nH]c2ccc3c(c2c1C(=O)OCC)CN1CCc2cc(OC)ccc2C1O3 (stereo not shown)"
  pIC50: 5.52
- COMPOUND: "CCOC(=O)c1c(C)[nH]c2ccc3c(c12)CN1CCc2cc(OC)ccc2C1O3 (stereo not shown) [Prior Art Compound Et/Me/9-OMe/H, reference compound]"
  pIC50: 5.22

###

- SYSTEM: human muscarinic receptor subtype M2 (Homo sapiens)
- Sequence (P08172 whole entry): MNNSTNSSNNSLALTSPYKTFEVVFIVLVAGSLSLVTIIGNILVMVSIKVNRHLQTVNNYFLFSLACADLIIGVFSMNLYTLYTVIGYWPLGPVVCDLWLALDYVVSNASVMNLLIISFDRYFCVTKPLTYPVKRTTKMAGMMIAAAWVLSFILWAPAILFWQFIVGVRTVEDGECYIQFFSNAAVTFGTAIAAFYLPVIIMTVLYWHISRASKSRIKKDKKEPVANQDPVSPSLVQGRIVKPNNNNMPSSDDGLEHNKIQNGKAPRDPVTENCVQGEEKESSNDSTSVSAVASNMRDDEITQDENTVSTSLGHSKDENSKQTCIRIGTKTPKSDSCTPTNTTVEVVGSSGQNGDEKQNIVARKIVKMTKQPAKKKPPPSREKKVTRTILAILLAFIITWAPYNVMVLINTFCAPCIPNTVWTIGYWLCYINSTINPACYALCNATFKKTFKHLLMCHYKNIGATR
- ASSAY: Muscarinic receptor binding, displacement of [3H]-NMS, membranes from transfected CHO cells
- EXPERIMENTAL_CONDITIONS: [3H]-NMS displacement, CHO cell membranes; tested two to four times, SEM <=10%; read-out: Muscarinic Binding Activity M2 (IC50)

- COMPOUND: "CCCc1c(C(=O)OCC)c2c3c(ccc2n1C)OC1c2ccc(SC)cc2CCN1C3 (stereo not shown) [Example 2]"
  SYSTEM: "human muscarinic receptor subtype M2 (Homo sapiens)"
  IC50: "7 µM"
- COMPOUND: "CCOC(=O)c1c(C)n(C)c2ccc3c(c12)CN1CCc2cc(OC)ccc2C1O3 (stereo not shown) [Prior Art Compound Et/Me/9-OMe/Me, reference compound]"
  SYSTEM: "human muscarinic receptor subtype M2 (Homo sapiens)"
  IC50: "0.4 µM"
- COMPOUND: "CCCc1c(C(=O)OCC)c2c3c(ccc2n1C)OC1c2ccc(OC)cc2CCN1C3 (stereo not shown) [Example 3]"
  SYSTEM: "human muscarinic receptor subtype M2 (Homo sapiens)"
  IC50: "0.95 µM"
- COMPOUND: "CCOC(=O)c1c(CC)[nH]c2ccc3c(c12)CN1CCc2cc(OC)ccc2C1O3 (stereo not shown) [Prior Art Compound Et/Et/9-OMe/H, reference compound]"
  SYSTEM: "human muscarinic receptor subtype M2 (Homo sapiens)"
  IC50: "2 µM"
- COMPOUND: "CCCCCc1[nH]c2ccc3c(c2c1C(=O)OCC)CN1CCc2cc(OC)ccc2C1O3 (stereo not shown) [Example 7]"
  SYSTEM: "human muscarinic receptor subtype M2 (Homo sapiens)"
  IC50: "0.6 µM"
- COMPOUND: "CCCc1[nH]c2ccc3c(c2c1C(=O)OCC)CN1CCc2cc(SC)ccc2C1O3 (stereo not shown) [Example 4]"
  SYSTEM: "human muscarinic receptor subtype M2 (Homo sapiens)"
  IC50: "2 µM"
- COMPOUND: "CCOC(=O)c1c(C)[nH]c2ccc3c(c12)CN1CCc2cc(OC)ccc2C1O3 (stereo not shown) [Prior Art Compound Et/Me/9-OMe/H, reference compound]"
  SYSTEM: "human muscarinic receptor subtype M2 (Homo sapiens)"
  IC50: "1 µM"

###

Recorded measurements of IC50, one per entry
- SYSTEM: human muscarinic receptor subtype M3 (Homo sapiens)
- Sequence (P20309 whole entry): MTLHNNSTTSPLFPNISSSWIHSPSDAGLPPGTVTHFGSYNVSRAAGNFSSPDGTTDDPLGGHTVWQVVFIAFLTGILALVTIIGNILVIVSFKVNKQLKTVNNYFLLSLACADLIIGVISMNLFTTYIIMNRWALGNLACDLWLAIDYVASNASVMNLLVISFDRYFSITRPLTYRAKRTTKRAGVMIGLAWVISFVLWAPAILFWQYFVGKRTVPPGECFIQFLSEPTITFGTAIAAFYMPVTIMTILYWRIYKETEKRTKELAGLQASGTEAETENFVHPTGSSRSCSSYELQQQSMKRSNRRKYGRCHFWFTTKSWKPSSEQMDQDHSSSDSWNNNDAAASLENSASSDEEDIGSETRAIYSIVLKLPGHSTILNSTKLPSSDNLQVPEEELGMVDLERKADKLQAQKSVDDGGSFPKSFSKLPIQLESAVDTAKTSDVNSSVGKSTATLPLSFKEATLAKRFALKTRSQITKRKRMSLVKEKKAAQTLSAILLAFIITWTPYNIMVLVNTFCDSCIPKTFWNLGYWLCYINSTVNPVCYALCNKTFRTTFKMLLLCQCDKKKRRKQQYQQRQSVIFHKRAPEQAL
- ASSAY: Muscarinic receptor binding, displacement of [3H]-NMS, membranes from transfected CHO cells
- EXPERIMENTAL_CONDITIONS: [3H]-NMS displacement, CHO cell membranes; tested two to four times, SEM <=10%; read-out: Muscarinic Binding Activity M3 (IC50)

- COMPOUND: "CCCCc1[nH]c2ccc3c(c2c1C(=O)OCC)CN1CCc2cc(SC)ccc2C1O3 (stereo not shown)"
  IC50: "5 µM"
- COMPOUND: "CCCc1[nH]c2ccc3c(c2c1C(=O)OCC)CN1CCc2cc(SC)ccc2C1O3 (stereo not shown)"
  IC50: "0.2 µM"
- COMPOUND: "CCCCCCc1[nH]c2ccc3c(c2c1C(=O)OCC)CN1CCc2cc(OC)ccc2C1O3 (stereo not shown)"
  IC50: "0.4 µM"
- COMPOUND: "CCOC(=O)c1c(C)[nH]c2ccc3c(c12)CN1CCc2cc(OC)ccc2C1O3 (stereo not shown) [Prior Art Compound Et/Me/9-OMe/H, reference compound]"
  IC50: "0.5 µM"

###

Below, each entry is listed with its recorded melting point.
ASSAY_METRIC: melting point

- MOLECULE: "CCCc1c(C(=O)OCC)c2c3c(ccc2n1C)OC1c2ccc(OC)cc2CCN1C3 (stereo not drawn)"
  OBSERVED_VALUE: "150 to 151 °C"
- MOLECULE: "CCCCCc1[nH]c2ccc3c(c2c1C(=O)OCC)CN1CCc2cc(OC)ccc2C1O3 (stereo not drawn)"
  OBSERVED_VALUE: "170 to 172 °C"
- MOLECULE: "CCCc1[nH]c2ccc3c(c2c1C(=O)OCC)CN1CCc2cc(OC)ccc2C1O3 (stereo not drawn)"
  OBSERVED_VALUE: "191 to 193 °C"

###

Measured IC50, listed per entry for reference.
- SYSTEM: human muscarinic receptor subtype M4 (Homo sapiens)
- Sequence (P08173 1-479): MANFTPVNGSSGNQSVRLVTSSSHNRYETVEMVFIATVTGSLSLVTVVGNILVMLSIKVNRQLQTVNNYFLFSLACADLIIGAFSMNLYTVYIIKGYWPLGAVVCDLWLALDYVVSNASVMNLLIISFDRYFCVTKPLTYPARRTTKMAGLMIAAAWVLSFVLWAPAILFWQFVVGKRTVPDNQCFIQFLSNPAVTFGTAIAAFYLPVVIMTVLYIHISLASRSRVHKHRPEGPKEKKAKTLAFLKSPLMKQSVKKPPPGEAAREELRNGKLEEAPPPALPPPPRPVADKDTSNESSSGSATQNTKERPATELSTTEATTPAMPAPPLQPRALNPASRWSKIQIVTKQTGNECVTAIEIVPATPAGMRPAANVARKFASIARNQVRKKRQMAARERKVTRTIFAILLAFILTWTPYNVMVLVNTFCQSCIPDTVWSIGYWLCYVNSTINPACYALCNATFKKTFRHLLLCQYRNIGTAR
- ASSAY: Muscarinic receptor binding, displacement of [3H]-NMS, membranes from transfected CHO cells
- EXPERIMENTAL_CONDITIONS: [3H]-NMS displacement, CHO cell membranes; tested two to four times, SEM <=10%; read-out: Muscarinic Binding Activity M4 (IC50)

- MOLECULE: "CCCCCc1[nH]c2ccc3c(c2c1C(=O)OCC)CN1CCc2cc(OC)ccc2C1O3 (centres unmarked)"
  IC50: "10 nM"
- MOLECULE: "CCOC(=O)c1c(C)n(C)c2ccc3c(c12)CN1CCc2cc(OC)ccc2C1O3 (centres unmarked) [Prior Art Compound Et/Me/9-OMe/Me, reference compound]"
  IC50: "50 nM"
- MOLECULE: "CCOC(=O)c1c(CC)[nH]c2ccc3c(c12)CN1CCc2cc(OC)ccc2C1O3 (centres unmarked) [Prior Art Compound Et/Et/9-OMe/H, reference compound]"
  IC50: "20 nM"
- MOLECULE: "CCCc1c(C(=O)OCC)c2c3c(ccc2n1C)OC1c2ccc(SC)cc2CCN1C3 (centres unmarked)"
  IC50: "7 nM"
- MOLECULE: "CCCCCCc1[nH]c2ccc3c(c2c1C(=O)OCC)CN1CCc2cc(OC)ccc2C1O3 (centres unmarked)"
  IC50: "30 nM"
- MOLECULE: "CCCc1c(C(=O)OCC)c2c3c(ccc2n1C)OC1c2ccc(OC)cc2CCN1C3 (centres unmarked)"
  IC50: "7 nM"
- MOLECULE: "CCCc1[nH]c2ccc3c(c2c1C(=O)OCC)CN1CCc2cc(OC)ccc2C1O3 (centres unmarked)"
  IC50: "9 nM"
- MOLECULE: "CCOC(=O)c1c(C)[nH]c2ccc3c(c12)CN1CCc2cc(OC)ccc2C1O3 (centres unmarked) [Prior Art Compound Et/Me/9-OMe/H, reference compound]"
  IC50: "30 nM"
- MOLECULE: "CCCCc1[nH]c2ccc3c(c2c1C(=O)OCC)CN1CCc2cc(SC)ccc2C1O3 (centres unmarked)"
  IC50: "10 nM"
- MOLECULE: "CCCc1[nH]c2ccc3c(c2c1C(=O)OCC)CN1CCc2cc(SC)ccc2C1O3 (centres unmarked)"
  IC50: "6 nM"
- MOLECULE: "CCCCc1[nH]c2ccc3c(c2c1C(=O)OCC)CN1CCc2cc(OC)ccc2C1O3 (centres unmarked)"
  IC50: "6 nM"
